Source listed as patent US20240199676A1.

Experimental Protocol: GI S9 stability (Ex. Z), rat intestinal S9
Assay type: in vitro ADME
Condition Info: pooled intestinal S9 fractions; rat intestinal S9, 1.0 mg/mL protein, 2 μM substrate, pH 7.4; read-out: GIS9 Rat T½ (per Ex. Z)
Readout Kind: log10 half-life at 2 μM (log10 of the value in min)
Quick note: numbers are log10 of half-life at 2 μM, with min as the unit.

// worked examples, log10 half-life at 2 μM included
Exercise: Respond only with log10 half-life at 2 μM recorded for CCC(CC)C(=O)Nc1ncnn2c([C@@H]3O[C@](C#N)(COC(=O)C(CC)CC)[C@@H](O)[C@H]3O)ccc12
Key: 1.57

Exercise: Respond only with log10 half-life at 2 μM recorded for CC(C)(C)CCC(=O)OC[C@@]1(C#N)O[C@@H](c2ccc3c(N)ncnn23)[C@H](O)[C@@H]1O
Key: 0.48

Exercise: Respond only with log10 half-life at 2 μM recorded for N#C[C@]1(COC(=O)C2CC2)O[C@@H](c2ccc3c(N)ncnn23)[C@H](O)[C@@H]1O
Key: 1.41

For each entry beneath this line, provide reported log10 half-life at 2 μM.
1. N#C[C@]1(COC(=O)C2CCC2)O[C@@H](c2ccc3c(N)ncnn23)[C@H](O)[C@@H]1O
2. CC(C)C(=O)OC[C@@]1(C#N)O[C@@H](c2ccc3c(N)ncnn23)[C@H](OC(=O)C(C)C)[C@@H]1OC(=O)C(C)C
3. CC(=O)OC[C@@]1(C#N)O[C@@H](c2ccc3c(N)ncnn23)[C@H](OC(C)=O)[C@@H]1OC(C)=O

Key:
1. 0.30
2. 0.30
3. 0.70

Exercise: Respond only with log10 half-life at 2 μM recorded for N#C[C@]1(COC(=O)C2CCCCC2)O[C@@H](c2ccc3c(N)ncnn23)[C@H](O)[C@@H]1O
Key: 0.60

* * *

Test system: Human Rhinovirus 16 (HRV16) in H1-HeLa cells
Experimental Protocol: H1-HeLa HRV-CTG 384-well Assay (Ex. Y), HRV16
Format: cell-based
Condition Info: Rhinovirus A, 96 h; H1-HeLa cells, HRV16 MOI 0.25, 4 days, Celltiter-Glo; read-out: EC50 H1-HeLa_HRV16_HRV-CTG 384-well Assay (per Ex. Y)
// classify: if (EC50 < 30 µM) TRUE else FALSE

Exercise: hey, is EC50 for CC(C)CC(=O)OC[C@@]1(C#N)O[C@@H](c2ccc3c(N)ncnn23)[C@H](O)[C@@H]1O lower than 30 µM or not?
Key: TRUE

Exercise: hey, is EC50 for CC(C)(C)C(=O)OC[C@@]1(C#N)O[C@@H](c2ccc3c(N)ncnn23)[C@H](O)[C@@H]1O lower than 30 µM or not?
Key: TRUE

Exercise: hey, is EC50 for N#C[C@]1(COC(=O)C2CC3(CCC3)C2)O[C@@H](c2ccc3c(N)ncnn23)[C@H](O)[C@@H]1O lower than 30 µM or not?
Key: TRUE

Exercise: hey, is EC50 for CC(C)[C@H](N)C(=O)OC[C@@]1(C#N)O[C@@H](c2ccc3c(N)ncnn23)[C@H](O)[C@@H]1O lower than 30 µM or not?
Key: TRUE

Exercise: hey, is EC50 for [H]/N=c1/c2ccc([C@@H]3O[C@](C#N)(CO)[C@@H](O)[C@H]3O)n2ncn1COC(=O)C(C)C lower than 30 µM or not?
Key: FALSE

More entries:
Exercise: hey, is EC50 for CC1(C(=O)OC[C@@]2(C#N)O[C@@H](c3ccc4c(N)ncnn34)[C@H](O)[C@@H]2O)CCC1 lower than 30 µM or not?
Key: TRUE

Exercise: hey, is EC50 for CC(C)C(=O)O[C@H]1[C@H](c2ccc3c(N)ncnn23)O[C@](C#N)(COC(=O)c2ccccc2)[C@H]1O lower than 30 µM or not?
Key: FALSE

Exercise: hey, is EC50 for CCC(CC)C(=O)OC[C@@]1(C#N)O[C@@H](c2ccc3c(N)ncnn23)[C@H](O)[C@@H]1O lower than 30 µM or not?
Key: FALSE

Exercise: hey, is EC50 for N#C[C@]1(COC(=O)C2CCC2)O[C@@H](c2ccc3c(N)ncnn23)[C@H](O)[C@@H]1O lower than 30 µM or not?
Key: TRUE

Exercise: hey, is EC50 for CC1(C(=O)OC[C@@]2(C#N)O[C@@H](c3ccc4c(N)ncnn34)[C@H](O)[C@@H]2O)CC1 lower than 30 µM or not?
Key: FALSE

Exercise: hey, is EC50 for CC(C)(C)CC(=O)OC[C@@]1(C#N)O[C@@H](c2ccc3c(N)ncnn23)[C@H](O)[C@@H]1O lower than 30 µM or not?
Key: FALSE

Exercise: hey, is EC50 for CC(=O)OC[C@@]1(C#N)O[C@@H](c2ccc3c(NC(=O)C(C)C)ncnn23)[C@H](O)[C@@H]1O lower than 30 µM or not?
Key: FALSE
